target: Carbonic anhydrase 1 (Homo sapiens, UniProt P00915); assay: Inhibition of recombinant human CA1 pre-incubated for 15 mins measured by phenol red dye based stopped flow CO2 hydration assay
Sequence (P00915 whole entry): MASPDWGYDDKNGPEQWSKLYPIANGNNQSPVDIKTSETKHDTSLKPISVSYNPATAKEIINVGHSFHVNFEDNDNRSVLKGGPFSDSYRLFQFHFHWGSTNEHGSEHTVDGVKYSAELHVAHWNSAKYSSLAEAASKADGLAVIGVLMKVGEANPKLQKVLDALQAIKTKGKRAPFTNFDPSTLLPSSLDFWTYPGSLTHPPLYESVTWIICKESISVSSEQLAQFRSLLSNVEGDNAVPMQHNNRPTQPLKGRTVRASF
// reported Ki per item

- Smiles Notation: "CCOC(=O)c1ccc(NC(=O)CS(=O)(=O)c2ccccc2)cc1"
  Experimental Target: "Carbonic anhydrase 1 (Homo sapiens, UniProt P00915)"
  Endpoint Result: "> 100 µM"
- Smiles Notation: "CCOC(=O)c1ccc(NC(=O)CS(=O)(=O)c2ccc(C)cc2)cc1"
  Experimental Target: "Carbonic anhydrase 1 (Homo sapiens, UniProt P00915)"
  Endpoint Result: "> 100 µM"

Data request: Which Ki is listed for O=C(CS(=O)(=O)c1ccccc1)Nc1ccc(C(=O)O)cc1 ?
Data returned: > 100 µM

Data request: Which Ki is listed for Cc1ccc(S(=O)(=O)CC(=O)Nc2ccc([N+](=O)[O-])cc2)cc1 ?
Data returned: > 100 µM

Data request: Which Ki is listed for CC(=O)c1ccc(NC(=O)CS(=O)(=O)c2ccc(C)cc2)cc1 ?
Data returned: > 100 µM
